- Tested on: Escherichia coli TOP10
- experimentalProtocol: shrunken log2 fold change of peptide-encoding DNA abundance (4.5 h post-induction vs induction); higher = less antimicrobial activity (less host growth inhibition)
- particulars: time post-induction: 4.5 h; library: site-saturation at positions 5, 18, 19, 20
readoutName: shrunken log2 fold change

polymersequence=RRIRPRPPRLPRPRPRPTEAPRP measuredon="Escherichia coli TOP10" readoutname="shrunken log2 fold change" experimentalresult=-0.258
polymersequence=RRIRRRPPRLPRPRPRPRLVPRP measuredon="Escherichia coli TOP10" readoutname="shrunken log2 fold change" experimentalresult=0.527
polymersequence=RRIRVRPPRLPRPRPRPDHHPRP measuredon="Escherichia coli TOP10" readoutname="shrunken log2 fold change" experimentalresult=-0.392
polymersequence=RRIRIRPPRLPRPRPRPTGVPRP measuredon="Escherichia coli TOP10" readoutname="shrunken log2 fold change" experimentalresult=0.039
polymersequence=RRIRSRPPRLPRPRPRPFDDPRP measuredon="Escherichia coli TOP10" readoutname="shrunken log2 fold change" experimentalresult=-0.0842
polymersequence=RRIRFRPPRLPRPRPRPEWIPRP measuredon="Escherichia coli TOP10" readoutname="shrunken log2 fold change" experimentalresult=-0.0219
polymersequence=RRIRVRPPRLPRPRPRPDWIPRP measuredon="Escherichia coli TOP10" readoutname="shrunken log2 fold change" experimentalresult=-0.218
polymersequence=RRIRFRPPRLPRPRPRPLILPRP measuredon="Escherichia coli TOP10" readoutname="shrunken log2 fold change" experimentalresult=-0.739
polymersequence=RRIRHRPPRLPRPRPRPILCPRP measuredon="Escherichia coli TOP10" readoutname="shrunken log2 fold change" experimentalresult=-0.182
polymersequence=RRIRMRPPRLPRPRPRPMLLPRP measuredon="Escherichia coli TOP10" readoutname="shrunken log2 fold change" experimentalresult=0.0485
polymersequence=RRIRPRPPRLPRPRPRPVFSPRP measuredon="Escherichia coli TOP10" readoutname="shrunken log2 fold change" experimentalresult=-0.00413
polymersequence=RRIRGRPPRLPRPRPRPNWVPRP measuredon="Escherichia coli TOP10" readoutname="shrunken log2 fold change" experimentalresult=0.325
polymersequence=RRIRRRPPRLPRPRPRPPLHPRP measuredon="Escherichia coli TOP10" readoutname="shrunken log2 fold change" experimentalresult=0.695
polymersequence=RRIRVRPPRLPRPRPRPNADPRP measuredon="Escherichia coli TOP10" readoutname="shrunken log2 fold change" experimentalresult=-0.00824
polymersequence=RRIRTRPPRLPRPRPRPCLHPRP measuredon="Escherichia coli TOP10" readoutname="shrunken log2 fold change" experimentalresult=-1.17

---

Catalogue of sequences with associated shrunken log2 fold change
- Tested on: Escherichia coli TOP10
- experimentalProtocol: shrunken log2 fold change of peptide-encoding DNA abundance (4.5 h post-induction vs induction); higher = less antimicrobial activity (less host growth inhibition)
- particulars: time post-induction: 4.5 h; library: site-saturation at positions 5, 18, 19, 20
readoutName: shrunken log2 fold change

polymersequence=RRIRSRPPRLPRPRPRPLRSPRP measuredon="Escherichia coli TOP10" experimentalresult=0.747
polymersequence=RRIRKRPPRLPRPRPRPLIYPRP measuredon="Escherichia coli TOP10" experimentalresult=-0.213
polymersequence=RRIRVRPPRLPRPRPRPHGMPRP measuredon="Escherichia coli TOP10" experimentalresult=-0.582
polymersequence=RRIRMRPPRLPRPRPRPPCPPRP measuredon="Escherichia coli TOP10" experimentalresult=0.564
polymersequence=RRIRGRPPRLPRPRPRPGYNPRP measuredon="Escherichia coli TOP10" experimentalresult=0.0217
polymersequence=RRIRCRPPRLPRPRPRPPCQPRP measuredon="Escherichia coli TOP10" experimentalresult=0.0248
polymersequence=RRIRFRPPRLPRPRPRPYWWPRP measuredon="Escherichia coli TOP10" experimentalresult=-0.198
polymersequence=RRIRSRPPRLPRPRPRPECYPRP measuredon="Escherichia coli TOP10" experimentalresult=0.133

---

- Test system: Escherichia coli TOP10
- experimentalProtocol: shrunken log2 fold change of peptide-encoding DNA abundance (4.5 h post-induction vs induction); higher = less antimicrobial activity (less host growth inhibition)
- particulars: time post-induction: 4.5 h; library: site-saturation at positions 5, 18, 19, 20
Please use Criterion met whenever shrunken log2 fold change is not below -0.005, and Criterion not met whenever it is.

polymersequence=RRIRDRPPRLPRPRPRPVLGPRP classification="Criterion met"
polymersequence=RRIRLRPPRLPRPRPRPKGYPRP classification="Criterion not met"
polymersequence=RRIRGRPPRLPRPRPRPTKAPRP classification="Criterion met"
polymersequence=RRIRNRPPRLPRPRPRPNFRPRP classification="Criterion met"
polymersequence=RRIRYRPPRLPRPRPRPTPDPRP classification="Criterion not met"
polymersequence=RRIRQRPPRLPRPRPRPMCAPRP classification="Criterion met"
polymersequence=RRIRCRPPRLPRPRPRPNGGPRP classification="Criterion met"
polymersequence=RRIRQRPPRLPRPRPRPMQIPRP classification="Criterion met"
polymersequence=RRIRQRPPRLPRPRPRPKGRPRP classification="Criterion met"
polymersequence=RRIRLRPPRLPRPRPRPNAFPRP classification="Criterion met"
polymersequence=RRIRWRPPRLPRPRPRPRIIPRP classification="Criterion met"
polymersequence=RRIRGRPPRLPRPRPRPSHFPRP classification="Criterion not met"
polymersequence=RRIRTRPPRLPRPRPRPMNDPRP classification="Criterion not met"
polymersequence=RRIRVRPPRLPRPRPRPHWHPRP classification="Criterion not met"
polymersequence=RRIRIRPPRLPRPRPRPSWFPRP classification="Criterion not met"

---

- System: Escherichia coli TOP10;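 further: peptides expressed intracellularly from a pBAD plasmid library in pooled LB shake-flask culture, induced with 0.3% L-arabinose, DNA abundance read by NGS, three biological replicates, DESeq2 with apeglm shrinkage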
- experimentalProtocol: shrunken log2 fold change of peptide-encoding DNA abundance (4.5 h post-induction vs induction); higher = less antimicrobial activity (less host growth inhibition)
- particulars: time post-induction: 4.5 h; library: site-saturation at positions 5, 18, 19, 20
// class assignment uses shrunken log2 fold change with these ranges: bin A = under -0.01, bin B = from -0.01 up to 0.3, bin C = 0.3 and over

polymersequence=RRIRHRPPRLPRPRPRPKTCPRP measuredon="Escherichia coli TOP10" classification="bin A"
polymersequence=RRIRQRPPRLPRPRPRPSPNPRP measuredon="Escherichia coli TOP10" classification="bin B"
polymersequence=RRIRKRPPRLPRPRPRPRPLPRP measuredon="Escherichia coli TOP10" classification="bin C"
polymersequence=RRIRMRPPRLPRPRPRPEKMPRP measuredon="Escherichia coli TOP10" classification="bin C"
polymersequence=RRIRERPPRLPRPRPRPPLCPRP measuredon="Escherichia coli TOP10" classification="bin B"
polymersequence=RRIRHRPPRLPRPRPRPHYHPRP measuredon="Escherichia coli TOP10" classification="bin A"
polymersequence=RRIRIRPPRLPRPRPRPCDFPRP measuredon="Escherichia coli TOP10" classification="bin A"
polymersequence=RRIRNRPPRLPRPRPRPWFWPRP measuredon="Escherichia coli TOP10" classification="bin C"
polymersequence=RRIRQRPPRLPRPRPRPGVAPRP measuredon="Escherichia coli TOP10" classification="bin B"
polymersequence=RRIRQRPPRLPRPRPRPIGPPRP measuredon="Escherichia coli TOP10" classification="bin B"
polymersequence=RRIRCRPPRLPRPRPRPSGCPRP measuredon="Escherichia coli TOP10" classification="bin A"
polymersequence=RRIRPRPPRLPRPRPRPEPGPRP measuredon="Escherichia coli TOP10" classification="bin B"
polymersequence=RRIRRRPPRLPRPRPRPRFFPRP measuredon="Escherichia coli TOP10" classification="bin C"
polymersequence=RRIRFRPPRLPRPRPRPSQYPRP measuredon="Escherichia coli TOP10" classification="bin A"
polymersequence=RRIRRRPPRLPRPRPRPFYNPRP measuredon="Escherichia coli TOP10" classification="bin A"
polymersequence=RRIRVRPPRLPRPRPRPEQIPRP measuredon="Escherichia coli TOP10" classification="bin A"
polymersequence=RRIRDRPPRLPRPRPRPYQTPRP measuredon="Escherichia coli TOP10" classification="bin A"
polymersequence=RRIRVRPPRLPRPRPRPRDEPRP measuredon="Escherichia coli TOP10" classification="bin C"
polymersequence=RRIRMRPPRLPRPRPRPENGPRP measuredon="Escherichia coli TOP10" classification="bin B"
polymersequence=RRIRYRPPRLPRPRPRPQDYPRP measuredon="Escherichia coli TOP10" classification="bin A"
polymersequence=RRIRWRPPRLPRPRPRPIQSPRP measuredon="Escherichia coli TOP10" classification="bin B"
polymersequence=RRIRYRPPRLPRPRPRPLMTPRP measuredon="Escherichia coli TOP10" classification="bin A"
polymersequence=RRIRYRPPRLPRPRPRPMVLPRP measuredon="Escherichia coli TOP10" classification="bin A"
polymersequence=RRIRKRPPRLPRPRPRPRCGPRP measuredon="Escherichia coli TOP10" classification="bin C"
polymersequence=RRIRDRPPRLPRPRPRPHIRPRP measuredon="Escherichia coli TOP10" classification="bin B"
polymersequence=RRIRMRPPRLPRPRPRPTKGPRP measuredon="Escherichia coli TOP10" classification="bin B"
polymersequence=RRIRWRPPRLPRPRPRPWMGPRP measuredon="Escherichia coli TOP10" classification="bin B"
polymersequence=RRIRKRPPRLPRPRPRPFPQPRP measuredon="Escherichia coli TOP10" classification="bin B"
polymersequence=RRIRLRPPRLPRPRPRPRARPRP measuredon="Escherichia coli TOP10" classification="bin C"
polymersequence=RRIRGRPPRLPRPRPRPVCIPRP measuredon="Escherichia coli TOP10" classification="bin C"
polymersequence=RRIRHRPPRLPRPRPRPTRDPRP measuredon="Escherichia coli TOP10" classification="bin B"

// provenance: the supplement of paper PMC9112550
